target: HLA-B*18:01; assay: IEDB peptide-MHC binding, purified MHC/competitive/fluorescence; filed as Kd, often an IC50 or EC50 that approximates it; bounds were set here for any values at or beyond the usual limits of such assays; settings: source organism: Vibrio cholerae V52
pKd: −log10 of the molar value.
Metric name: pKd

IGYRLGMGK :: ≤ 4.70

* * *

target: HLA-B*15:01; test: IEDB peptide-MHC binding, purified MHC/direct/fluorescence; filed as Kd, often an IC50 or EC50 that approximates it; bounds were set here for any values at or beyond the usual limits of such assays; conditions: source organism: Listeria monocytogenes serotype 4b str. H7858
Metric name: Kd (nM)

MAMLADYFY :: 12
